Values were extracted from PubChem BioAssay AID1159580.

Recorded normalized growth values for a group of compounds are listed next.
- procedure-text: chemical genetic growth profiling, strain panel (AID 1159580);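 further: tested at 20 µM; growth read once vehicle control cultures reached saturation at 30 °C; 1 = growth at the plate median or of vehicle wells; lower values mean less growth of the strain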
- setup-conditions: S. cerevisiae deletion strains, growth OD, locus YLR342W, strain FKS1, stronger effect = lower value
Out of some 5,500 compounds screened, about 2,000 (36%) were called active. About 18% were inconclusive and are not listed. The list shows a part of the results.

# example entries with known answers
{"compound": "CC1(C)O[C@H]2CC(=O)OC[C@]23[C@H]2CC[C@@]4(C)[C@H](c5ccoc5)OC(=O)[C@H]5O[C@]54[C@]2(C)C(=O)C[C@@H]13", "normalized growth": "0.975 (inactive)"}
{"compound": "CC[n+]1c(-c2ccccc2)c2cc(N)ccc2c2ccc(N)cc21", "normalized growth": "0.987 (inactive)"}
{"compound": "CC(=O)O[C@@H]1CC2C(C)(C)C(=O)C=C[C@]2(C)C2CC[C@@]3(C)[C@H](c4ccoc4)OC(=O)[C@H]4O[C@]43[C@@]21C (stereo partly specified)", "normalized growth": "1.01 (inactive)"}
{"compound": "COc1cc(OC)c2c(=O)c(O)c(-c3ccc(OC)c(OC)c3)oc2c1", "normalized growth": "0.875 (active)"}

Recorded result, CC1(C)C(=O)C=C[C@@]2(C)C1C=C[C@]1(C)C2CC[C@@]2(C)[C@H](c3ccoc3)OC(=O)C3OC321 (stereo partly specified) , normalized growth: 0.924 (inactive)

Notebook: "COc1cc(O)c2c(=O)c(O)c(-c3ccc(O)c(O)c3)oc2c1" , normalized growth read as 0.643 (active)

Sample CC1(C)C=CC(=O)[C@@]2(C)C1CC(=O)[C@]1(C)C2CC[C@@]2(C)[C@H](c3ccoc3)OC(=O)C3OC321 (stereo partly specified) ; normalized growth observed: 1.01 (inactive)

Form field normalized growth, entry CC1(C)C(=O)C=C[C@@]2(C)C1C[C@@H](O)[C@]1(C)C2CC[C@@]2(C)[C@H](c3ccoc3)OC(=O)[C@H]3O[C@]321 (stereo partly specified) : 1.02 (inactive)

// field: normalized growth; key: CC1(C)C2CC(=O)[C@]3(C)C(CC[C@@]4(C)[C@H](c5ccoc5)OC(=O)C5OC543)[C@@]2(C)[C@@H](O)C[C@H]1O (stereo partly specified) ; value = 1.02 (inactive)

normalized growth reported for this compound "CC(C)[N+](C)(CCC(C(N)=O)(c1ccccc1)c1ccccc1)C(C)C" : 0.994 (inactive)

Consider C[C@@H]1O[C@@H](OC[C@H]2OC(Oc3c(-c4ccc(OCCO)c(OCCO)c4)oc4cc(OCCO)cc(O)c4c3=O)[C@H](O)[C@@H](O)[C@@H]2O)[C@H](O)[C@H](O)[C@H]1O (stereo partly specified) . Its measured normalized growth is 0.974 (inactive)

Sure, the documented normalized growth for CC1(C)C2CC(=O)[C@]3(C)C(CC[C@@]4(C)[C@H](c5ccoc5)OC(=O)[C@H]5O[C@]543)[C@@]2(C)C(=O)C[C@H]1O (stereo partly specified) is 1.01 (inactive)

Just so you know, measured normalized growth for "C=C[C@H]1CN2CC[C@H]1C[C@@H]2[C@@H](OC(=O)OCC)c1ccnc2ccc(OC)cc12" came out at 0.995 (inactive)

normalized growth in this record for CC(CC(C(N)=O)(c1ccccc1)c1ccccc1)N(C)C (stereo unspecified) : 0.986 (inactive)

// normalized growth lookup, compound = CC(C)N(CCC(C(N)=O)(c1ccccc1)c1ccccn1)C(C)C (stereo unspecified) , result: 0.0913 (active)

Summary for this compound, "CCCCOc1cc(C(=O)NCCN(CC)CC)c2ccccc2n1" : normalized growth is 0.957 (inactive)
